# credit: ChEMBL document CHEMBL4024762

# procedure.summary: Volume of distribution in rat at 1 mg/kg, iv
# Format: ADME, organism-based
# experimental.setup: in vivo
measured.metric: Vd (L/kg)
Dear colleague, please return just the value in L/kg, with no unit written.

[in] So what does the record say about Vd for CC1(C)Cc2c(sc(NC(=O)c3ccn[nH]3)c2C(N)=O)C(C)(C)O1 ?
[out] 4.8

* * *

# study.target: Cystic fibrosis transmembrane conductance regulator (Homo sapiens, UniProt P13569, G551D)
# Sequence (P13569 whole entry G551D): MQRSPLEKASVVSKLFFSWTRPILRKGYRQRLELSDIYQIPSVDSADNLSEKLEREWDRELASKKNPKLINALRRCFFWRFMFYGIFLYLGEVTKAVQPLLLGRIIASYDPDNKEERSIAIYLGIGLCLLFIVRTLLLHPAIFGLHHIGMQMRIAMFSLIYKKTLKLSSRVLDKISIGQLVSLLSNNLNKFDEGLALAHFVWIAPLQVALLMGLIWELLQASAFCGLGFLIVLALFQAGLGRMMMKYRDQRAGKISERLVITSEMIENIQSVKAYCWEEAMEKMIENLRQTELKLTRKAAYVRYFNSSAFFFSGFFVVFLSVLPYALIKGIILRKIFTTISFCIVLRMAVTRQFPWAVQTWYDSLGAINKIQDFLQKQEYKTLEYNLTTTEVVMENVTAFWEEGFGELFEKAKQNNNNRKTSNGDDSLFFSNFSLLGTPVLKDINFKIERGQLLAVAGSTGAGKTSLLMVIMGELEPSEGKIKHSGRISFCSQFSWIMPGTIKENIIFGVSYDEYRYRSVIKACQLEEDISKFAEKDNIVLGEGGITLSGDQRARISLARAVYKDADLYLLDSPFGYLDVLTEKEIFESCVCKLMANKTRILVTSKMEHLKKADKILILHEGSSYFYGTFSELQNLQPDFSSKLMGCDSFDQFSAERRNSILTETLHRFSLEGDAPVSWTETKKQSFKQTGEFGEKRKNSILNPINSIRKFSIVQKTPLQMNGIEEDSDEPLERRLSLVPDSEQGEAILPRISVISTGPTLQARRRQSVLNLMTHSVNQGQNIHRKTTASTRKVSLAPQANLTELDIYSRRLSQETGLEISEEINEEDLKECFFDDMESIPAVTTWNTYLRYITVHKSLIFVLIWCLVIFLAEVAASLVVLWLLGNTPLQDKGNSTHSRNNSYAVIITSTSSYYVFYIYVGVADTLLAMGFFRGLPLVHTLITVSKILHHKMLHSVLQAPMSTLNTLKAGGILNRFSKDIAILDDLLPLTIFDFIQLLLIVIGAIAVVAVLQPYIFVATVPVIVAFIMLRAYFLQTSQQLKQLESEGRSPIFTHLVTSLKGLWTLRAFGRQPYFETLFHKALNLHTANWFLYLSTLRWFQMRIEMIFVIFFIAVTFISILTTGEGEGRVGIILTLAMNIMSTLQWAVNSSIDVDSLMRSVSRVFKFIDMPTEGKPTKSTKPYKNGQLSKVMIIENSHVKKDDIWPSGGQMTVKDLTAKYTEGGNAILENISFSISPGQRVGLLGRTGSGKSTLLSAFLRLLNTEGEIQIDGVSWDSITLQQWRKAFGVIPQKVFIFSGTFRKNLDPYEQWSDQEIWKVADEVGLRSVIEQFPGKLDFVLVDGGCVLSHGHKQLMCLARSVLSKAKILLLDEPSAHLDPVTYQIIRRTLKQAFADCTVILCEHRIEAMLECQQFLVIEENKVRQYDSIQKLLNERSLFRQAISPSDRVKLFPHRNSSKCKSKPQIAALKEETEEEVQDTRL
# procedure.summary: Potentiation of CFTR G551D mutant (unknown origin) expressed in HEK293 cells incubated for 10 mins in presence of forskolin measured for 2 mins by YFP halide assay
# Type: cell-based
measured.metric: pEC50
Would you please state pEC50, meaning minus log10 of the concentration in mol/L, as a bare number?

Take a look at these entries with their results.
> print(dat)
                           structure.string                              study.target  measured.number
1  CC1(C)Cc2c(sc(NC(=O)c3cc(C(F)(F)F)[nH]n3)c2C(N)=O)C(C)(C)O1  Cystic fibrosis transmembrane conductance regulator (Homo sapiens, UniProt P13569, G551D)             6.89
2  CC1(C)Cc2c(sc(NC(=O)c3ccn[nH]3)c2C(N)=O)C(C)(C)O1  Cystic fibrosis transmembrane conductance regulator (Homo sapiens, UniProt P13569, G551D)             6.47
3  CC1(C)Cc2c(sc(NC(=O)[C@@H](O)C(C)(C)C)c2C(N)=O)C(C)(C)O1  Cystic fibrosis transmembrane conductance regulator (Homo sapiens, UniProt P13569, G551D)             6.38

API: the following record is the query input.
[in] Query for Cystic fibrosis transmembrane conductance regulator (Homo sapiens, UniProt P13569, G551D): what pEC50 does the record show for CC(C)(C)c1cc(C(C)(C)C)c(NC(=O)c2c[nH]c3ccccc3c2=O)cc1O ?
[out] 5.89

* * *

# study.target: Cystic fibrosis transmembrane conductance regulator (Homo sapiens, UniProt P13569, F508DEL)
# Sequence (P13569 as listed by the source): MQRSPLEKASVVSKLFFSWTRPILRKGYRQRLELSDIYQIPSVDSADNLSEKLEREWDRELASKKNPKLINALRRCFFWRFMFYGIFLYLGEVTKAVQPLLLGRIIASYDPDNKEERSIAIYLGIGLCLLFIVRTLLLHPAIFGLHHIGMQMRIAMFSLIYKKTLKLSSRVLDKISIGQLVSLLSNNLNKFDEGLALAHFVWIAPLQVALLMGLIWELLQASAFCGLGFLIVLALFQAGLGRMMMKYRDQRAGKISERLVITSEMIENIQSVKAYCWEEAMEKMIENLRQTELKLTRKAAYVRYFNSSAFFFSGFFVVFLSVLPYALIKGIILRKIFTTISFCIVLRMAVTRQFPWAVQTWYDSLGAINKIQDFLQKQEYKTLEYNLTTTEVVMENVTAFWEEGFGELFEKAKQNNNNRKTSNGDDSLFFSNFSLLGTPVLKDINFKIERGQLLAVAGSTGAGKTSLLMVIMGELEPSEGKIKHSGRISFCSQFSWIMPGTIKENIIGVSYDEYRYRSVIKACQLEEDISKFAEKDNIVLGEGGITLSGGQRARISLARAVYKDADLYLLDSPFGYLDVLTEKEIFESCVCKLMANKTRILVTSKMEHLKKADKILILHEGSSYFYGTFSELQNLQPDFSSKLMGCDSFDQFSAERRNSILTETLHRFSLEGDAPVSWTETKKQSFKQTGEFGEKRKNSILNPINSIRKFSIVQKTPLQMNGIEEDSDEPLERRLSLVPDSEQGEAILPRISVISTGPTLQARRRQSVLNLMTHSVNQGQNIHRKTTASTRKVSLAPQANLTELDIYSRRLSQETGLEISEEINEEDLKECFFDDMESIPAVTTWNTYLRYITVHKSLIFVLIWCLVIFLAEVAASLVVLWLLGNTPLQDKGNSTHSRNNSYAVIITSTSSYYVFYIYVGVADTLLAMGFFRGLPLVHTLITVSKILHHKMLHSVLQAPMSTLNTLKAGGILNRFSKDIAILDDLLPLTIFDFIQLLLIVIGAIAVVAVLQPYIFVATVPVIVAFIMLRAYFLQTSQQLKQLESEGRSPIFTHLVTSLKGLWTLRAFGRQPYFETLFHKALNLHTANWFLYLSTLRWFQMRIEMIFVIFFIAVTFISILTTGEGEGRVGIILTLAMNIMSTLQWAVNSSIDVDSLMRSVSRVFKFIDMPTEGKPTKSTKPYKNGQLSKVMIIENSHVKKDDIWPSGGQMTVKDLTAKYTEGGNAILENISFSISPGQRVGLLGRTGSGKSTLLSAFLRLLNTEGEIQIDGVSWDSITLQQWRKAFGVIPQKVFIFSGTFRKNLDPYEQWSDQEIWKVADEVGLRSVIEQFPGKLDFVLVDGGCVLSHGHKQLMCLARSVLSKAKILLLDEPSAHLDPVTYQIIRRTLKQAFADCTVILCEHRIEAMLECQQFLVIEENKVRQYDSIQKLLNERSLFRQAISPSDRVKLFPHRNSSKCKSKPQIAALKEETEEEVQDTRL
# procedure.summary: Potentiation of CFTR F508del mutant (unknown origin) expressed in human CFBE41o cells incubated for 10 mins in presence of forskolin measured for 7 secs by YFP halide assay
measured.metric: EC50 (nM)
Dear colleague, please return just the value in nM, with no unit written.

Take a look at these entries with their results.
> print(dat)
                                   compound  measured.number
1  CC1(C)Cc2c(sc(NC(=O)[C@@H](O)C(C)(C)C)c2C(N)=O)C(C)(C)O1              2.7
2  CC1(C)Cc2c(sc(NC(=O)C3(CO)CC3)c2C(N)=O)C(C)(C)O1               15
3  CC1(C)Cc2c(sc(NC(=O)C(C)(C)CO)c2C(N)=O)C(C)(C)O1               75
4  CC1(C)Cc2c(sc(NC(=O)c3ccn[nH]3)c2C(N)=O)C(C)(C)O1                3
5  CC(C)(C)c1cc(C(C)(C)C)c(NC(=O)c2c[nH]c3ccccc3c2=O)cc1O              126

[in] So what does the record say about EC50 for Cc1cc(C(=O)Nc2sc3c(c2C(N)=O)CC(C)(C)OC3(C)C)[nH]n1 ?
[out] 13

[in] So what does the record say about EC50 for CC1(C)Cc2c(sc(NC(=O)Cc3ccn[nH]3)c2C(N)=O)C(C)(C)O1 ?
[out] 136

[in] So what does the record say about EC50 for CC1(C)Cc2c(sc(NC(=O)C(C)(C)O)c2C(N)=O)C(C)(C)O1 ?
[out] 16

[in] So what does the record say about EC50 for CC1Cc2c(sc(NC(=O)c3ccccc3O)c2C(N)=O)C(C)O1 (stereo not given) ?
[out] 4

* * *

# Tested on: Cystic fibrosis transmembrane conductance regulator (Homo sapiens), P13569 [G551D]
# procedure.summary: Potentiation of CFTR G551D mutant (unknown origin) expressed in HEK293 cells incubated for 10 mins in presence of forskolin measured for 2 mins by YFP halide assay
# Assay type: cell-based
# Design: concentration or dose not given beside the values
Measured Activity values are reported for all entries that follow.
Dear colleague, please return just the value in %, with no unit written.

> print(dat)
                                   compound                              study.target  unit.text  measured.number
1  CC1(C)Cc2c(sc(NC(=O)[C@H](O)C(C)(C)C)c2C(N)=O)C(C)(C)O1  Cystic fibrosis transmembrane conductance regulator (Homo sapiens), P13569 [G551D]          %               31
2  CC1(C)Cc2c(sc(NC(=O)c3ccccc3O)c2C(N)=O)C(C)(C)O1  Cystic fibrosis transmembrane conductance regulator (Homo sapiens), P13569 [G551D]          %               52
3  Cc1cc(C(=O)Nc2sc3c(c2C(N)=O)CC(C)(C)OC3(C)C)[nH]n1  Cystic fibrosis transmembrane conductance regulator (Homo sapiens), P13569 [G551D]          %               73

[in] So what does the record say about Activity for CC1(C)Cc2c(sc(NC(=O)c3ccn[nH]3)c2C(N)=O)C(C)(C)O1 ?
[out] 103

[in] So what does the record say about Activity for CC(C)(C)CC(O)C(=O)Nc1sc2c(c1C(N)=O)CC(C)(C)OC2(C)C (stereo not given) ?
[out] 58

* * *

# procedure.summary: Permeability across apical to basolateral side in MDCK cells
# Type: ADME, cell-based, Canis lupus familiaris
# experimental.setup: dog, read-out: permeability
measured.metric: Papp A→B (×10⁻⁶ cm/s)
Dear colleague, please return just the value in ×10⁻⁶ cm/s, with no unit written.

[in] So what does the record say about Papp A→B for CC1(C)Cc2c(sc(NC(=O)c3ccn[nH]3)c2C(N)=O)C(C)(C)O1 ?
[out] 11

* * *

# study.target: Cystic fibrosis transmembrane conductance regulator (Homo sapiens, UniProt P13569, G551D)
# procedure.summary: Potentiation of CFTR G551D mutant in primary HBE cells assessed as increase in channel conductivity measured every 2 mins for 20 mins by TECC assay
# Type: cell-based
measured.metric: EC50 (nM)
Dear colleague, please return just the value in nM, with no unit written.

[in] So what does the record say about EC50 for CC1(C)Cc2c(sc(NC(=O)c3ccn[nH]3)c2C(N)=O)C(C)(C)O1 ?
[out] 181

* * *

# procedure.summary: Thermodynamic solubility of the compound at pH 3
# Type: physicochemical
# experimental.setup: buffer, read-out: Therm_solubility
measured.metric: solubility thermodynamic

[in] So what does the record say about solubility thermodynamic for CC1(C)Cc2c(sc(NC(=O)c3ccn[nH]3)c2C(N)=O)C(C)(C)O1 ?
[out] 11 µM

* * *

# procedure.summary: Oral bioavailability in dog at 5 mg/kg
# Assay type: ADME, organism-based, Canis lupus familiaris
# experimental.setup: in vivo
measured.metric: bioavailability

[in] So what does the record say about bioavailability for CC1(C)Cc2c(sc(NC(=O)c3ccn[nH]3)c2C(N)=O)C(C)(C)O1 ?
[out] > 100%

* * *

# study.target: Cystic fibrosis transmembrane conductance regulator (Homo sapiens, UniProt P13569, F508DEL)
# procedure.summary: Potentiation of CFTR F508del mutant (unknown origin) expressed in human CFBE41o cells incubated for 10 mins in presence of forskolin measured for 7 secs by YFP halide assay
Measured EC50 values are reported for all entries that follow.
Dear colleague, please return just the value in nM, with no unit written.

Take a look at these entries with their results.
> print(dat)
                           structure.string  measured.metric  measured.number
1  CC1(C)Cc2c(sc(NC(=O)[C@H](O)C(C)(C)C)c2C(N)=O)C(C)(C)O1             EC50              127
2  CC1(C)Cc2c(sc(NC(=O)c3[nH]ncc3Cl)c2C(N)=O)C(C)(C)O1             EC50                2
3     NC(=O)c1c(NC(=O)c2ccccc2Cl)sc2c1CCCC2             EC50              326

[in] So what does the record say about EC50 for CC1(C)Cc2c(sc(NC(=O)c3ccccc3O)c2C(N)=O)C(C)(C)O1 ?
[out] 4

[in] So what does the record say about EC50 for Cc1cn[nH]c1C(=O)Nc1sc2c(c1C(N)=O)CC(C)(C)OC2(C)C ?
[out] 2

[in] So what does the record say about EC50 for CC1(C)Cc2c(sc(NC(=O)c3nnc[nH]3)c2C(N)=O)C(C)(C)O1 ?
[out] 467

[in] So what does the record say about EC50 for CC1(C)Cc2c(sc(NC(=O)c3ccccc3NS(C)(=O)=O)c2C(N)=O)C(C)(C)O1 ?
[out] 147
